We begin with a simple list: items and their reported PET hydrolysis.
Assay: PET hydrolysis, aromatic products released after 48 h (umol product/mg enzyme); higher = more PET depolymerization activity
Settings: substrate: cryPow; 40 °C; pH 4.5

{"SEQUENCE_DATA": "MAAANPYQRGPDPTLASVAATNGPFATAQMTVPPGNGFNGGYIYYPTDTSLGTWGAVAIVPGYTALFKNEEAWMGPRLASFGFVVIGIETNSRTDFDTARGTQLLAALDYLTQKSAVRNRVDPGRLGVIGHSMGGGGALVAATQRPSLKAAVGLAPFKPSGNLANDRVPTMFIAGNRDTVVTPSYLDGLYGSLPAATKKAYVQINGADHLFATKPNTVEMRTLIPWLKIFLDNDTRYSQFLCPTLLDKTGVSMYRGTCPLI [TEP109]", "PET hydrolysis": 28.5}
{"SEQUENCE_DATA": "TAGAEPSGGAPAAGGSGCGDVADPAAQGPLHVQTYSSGLRDGPDYGSQTMHYPTDGAPPYPALVIVPGFMSLESSIADHGPHFASHGIVTLTIGTNSTMDQPPARSEALLDALETIRAEHTRAGGPLEGKLDLSRLGVMGWSMGGGGTLITVDDHPELKAAITLCAWNPGQTYRNNQVPTLLFAGTADTLAGG [TEP195]", "PET hydrolysis": "< 3"}
{"SEQUENCE_DATA": "ADNPYERGPAPTEASVEAPRGPYAVSETTVSPLAVTGFGGGTVYYPTSTADGTFGAIAVSPGYTGTQSSIAWLGPRLASQGFVVFTIDTLTTLDQPDSRGRQLLAALDYLTQKSSVRGRIDSTRLGVMGHSMGGGGSLEAAKSRPSLQAAIPLTPWNLDKTWPEVATPTLIFGADGDTIAPVATHAEPFYTSLPASLDRAYLELNGATHFTPNTSNTTIAKYSIAWLKRFIDDDTRYEQFLCPLPRPGLTIEEYRGNCPHTS [TEP117]", "PET hydrolysis": "< 3"}
{"SEQUENCE_DATA": "QPTLESLGNPGPYQVAYYDQLPEVDEYGAATLYFPANRGTDFGGVAIAPGFIEQQENIEWWGRHLASYGFAVLVLDTNNPRDDPQVRSEALLAALDVIRGEGARSGSPIRGKILNDRMAVMGHSMGGGGTLLAANRASDQLKAIIPFTPWLPNADFSSVAVPTLVLAGEVDRIASVAEHAWPHFQTLPEGIPRMYVEIAGGNHFIANSTTDQERLNPNIDVHDLVGALGVAWLKYFVDGDEDYRDLIYGELPAEQRARLSRFEFVQ [TEP107]", "PET hydrolysis": "< 3"}
{"SEQUENCE_DATA": "CAAGGPGASPGLQPTIASLSVDGAFKVMTYTDIPDVPEFGDATVYYPADTPTPIGGVAISPGWTEAQRHINWWGPRLASHGYAVLVLDTNDARRDQPEERAEALIAAVRILRGENDRAESPLQGRVDTGKMAIMGHSMGGGGTLIAANKYPDEIQAAIPFTPWQPDGDFGQITAPTLVMAGSADRVAGVADHAWPHYQSIPETTTKVFMEVDGGNHFIADTRRGTDLGTIGRYGIAWLKLYLDGDERYRSFIYGAEAEVDREKFSRYLTSP [TEP119]", "PET hydrolysis": "< 3"}
{"SEQUENCE_DATA": "FSAPGPSAPCSNCTRGPAPTVASLKASSGPFSTAKFSVSGYLKGFGNSTVYYPTNTSGKMGAIAVIPGYLSYESSIEWWGPRLASHGFVVMTMNTNSIYDQPDSRATQLSKALDYLISQSGSSSSPIYGKVDSSRLGAIGWSMGGGGSLKLSTQRSINAIIPQAPWYLGSNTFNTIKTPALILACSADTVAPVYQHASPFYNRIPTSTPKAFLEIYGGSHFCANSGYPNEDLLGMYGIAWMKRFIDFDSRYSQFLCGPNHESDYAISEYRQNCPY [ESM017]", "PET hydrolysis": "< 3"}
